Measured competition rate, listed per entry for reference.
# Test Target: T1, human MSLN-FL-his protein (human, UniProt Q13421 296-580)
# T1 construct: made in HEK293E cells, purified on nickel column; also called hMSLN-FL-his; human MSLN full-length protein; not shown: His tag
# T1 sequence (Q13421 other isoform, or with tags, fused parts or gaps): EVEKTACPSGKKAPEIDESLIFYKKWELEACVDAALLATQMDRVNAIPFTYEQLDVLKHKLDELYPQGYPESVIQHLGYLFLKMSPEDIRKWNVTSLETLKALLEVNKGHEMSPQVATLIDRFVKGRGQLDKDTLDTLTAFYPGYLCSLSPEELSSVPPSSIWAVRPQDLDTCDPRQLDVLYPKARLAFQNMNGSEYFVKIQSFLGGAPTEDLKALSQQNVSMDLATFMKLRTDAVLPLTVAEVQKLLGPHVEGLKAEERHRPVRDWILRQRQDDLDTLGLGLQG
# Assay: competitive ELISA; row Tab142; note: test concentration or dose not given here
Answer format: numeric, % implied, no suffix.

INSERT INTO results (binder, property_name, quantitative_result) VALUES
  ('S009-F8-28.23 (antibody, human IgG1, kappa, V domains shown, human-murine chimeric antibody, human IgG1/kappa constant regions) VH: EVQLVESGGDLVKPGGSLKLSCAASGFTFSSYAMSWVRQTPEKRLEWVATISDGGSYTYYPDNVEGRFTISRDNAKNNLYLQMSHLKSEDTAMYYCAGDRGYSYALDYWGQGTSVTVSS VL: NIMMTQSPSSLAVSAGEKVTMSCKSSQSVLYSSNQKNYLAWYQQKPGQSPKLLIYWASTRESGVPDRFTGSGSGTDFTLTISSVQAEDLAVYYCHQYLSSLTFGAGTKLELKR', 'competition rate', 9.8);

Next item in the queue.
For reference, reported competition rate for S009-F8-29.1 (antibody, human IgG1, kappa, V domains shown, human-murine chimeric antibody, human IgG1/kappa constant regions) VH: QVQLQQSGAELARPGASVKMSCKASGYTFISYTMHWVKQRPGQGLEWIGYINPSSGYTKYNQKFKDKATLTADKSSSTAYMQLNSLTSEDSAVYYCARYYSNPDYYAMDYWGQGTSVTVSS VL: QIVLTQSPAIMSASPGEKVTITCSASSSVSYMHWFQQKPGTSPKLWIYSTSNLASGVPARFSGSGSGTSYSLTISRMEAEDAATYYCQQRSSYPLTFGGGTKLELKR stands at 36.8
